Target: T1, human IL-12Rβ2 (human, UniProt Q99665 24-862)
T1 construct: Expressed on HEK293T cells transiently transfected with a pcDNA3 plasmid (Genscript clone OHu21785); also called hIL-12RB2; IL-12 receptor β2 subunit
T1 sequence: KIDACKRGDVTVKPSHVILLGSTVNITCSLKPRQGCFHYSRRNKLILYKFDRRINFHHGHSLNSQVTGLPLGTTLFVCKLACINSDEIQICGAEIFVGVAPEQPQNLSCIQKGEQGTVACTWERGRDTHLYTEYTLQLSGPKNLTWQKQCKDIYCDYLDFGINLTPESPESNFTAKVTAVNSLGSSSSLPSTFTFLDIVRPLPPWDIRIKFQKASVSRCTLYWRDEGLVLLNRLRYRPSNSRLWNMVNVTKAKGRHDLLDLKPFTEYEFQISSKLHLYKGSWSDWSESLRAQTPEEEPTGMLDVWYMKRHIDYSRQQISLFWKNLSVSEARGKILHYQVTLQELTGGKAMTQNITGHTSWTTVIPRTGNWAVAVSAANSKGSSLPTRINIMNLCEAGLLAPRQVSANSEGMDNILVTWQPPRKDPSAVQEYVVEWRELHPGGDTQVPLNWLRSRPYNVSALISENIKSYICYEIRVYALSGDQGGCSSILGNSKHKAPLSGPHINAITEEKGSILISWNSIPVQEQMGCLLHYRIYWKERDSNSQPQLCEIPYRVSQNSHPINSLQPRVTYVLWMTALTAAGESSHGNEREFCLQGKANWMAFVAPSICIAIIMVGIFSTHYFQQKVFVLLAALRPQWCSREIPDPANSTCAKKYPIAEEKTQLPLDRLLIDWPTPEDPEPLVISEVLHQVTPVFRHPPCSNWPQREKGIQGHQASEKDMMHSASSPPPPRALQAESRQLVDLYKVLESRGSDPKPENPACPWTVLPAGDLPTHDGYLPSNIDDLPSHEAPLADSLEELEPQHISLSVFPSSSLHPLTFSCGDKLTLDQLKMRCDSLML
Assay: flow cytometry, P.E. on transfected HEK293T cells
assay-readout: % cells bound

binder="anti-IL-12Rβ2 VHH clone 3CRHS184 (VHH, not shown: small tags and cut ends, periplasmic extract) VHH: QVQLQESGGGLVQAGGSLVLSCAASGSAALIFLMSWYRQAPGKQRELVAEVSRYGSTTYADSVEGRFTISRDNAKNIVDLQMNSLKPEDTAVYYCKADQYYGDSLRSSWGRGTQLTVSS" result=33.3%
binder="anti-IL-12Rβ2 VHH clone 3CRHM14 (VHH, not shown: small tags and cut ends, periplasmic extract) VHH: QVQLQESGGGLVQAGGSLRLSCAASGRTFSNYAMAWFRQAPGTEREFVAGLSGSGGDTEFYDDSVKGRFAISRDSAKNTVWLQMNSLKPEDTAVYYCAAATHVVVHYGLVRRRGTYDYWGQGTQVTVSS" result=35.8%
binder="anti-IL-12Rβ2 VHH clone 3CRHS51 (VHH, not shown: small tags and cut ends, periplasmic extract) VHH: QVQLQESGGGLVQPGGSLRLSCAASGFTFSTYAMSWVRQAPGKGLEWVSAVNSGGLSTDYADSVEGRFTISRDDAKNMLFLQMNRLKPEDTARYYCAKYEDCSDYVCDRAGYWGQGTQVTVSS" result=46%
binder="anti-IL-12Rβ2 VHH clone 3CRH25 (VHH, not shown: small tags and cut ends, periplasmic extract) VHH: QVQLQESGGGLVQAGDSLRLSCTASGHTFSRYTTIGWFRQAPGKDREFVAAIRWSGDITDYADAVKGRFTISRDNVKNTVYLQMNSLNPEDTAVYYCARGYSEYGVLSRNRGLYAYWGQGTQVTVSS" result=34.8%
